assay-target: 3-phosphoinositide-dependent protein kinase 1 (Homo sapiens) (UniProt O15530)
experimental-readout: IC50

Query block: Notebook: pull reported IC50 for 3-phosphoinositide-dependent protein kinase 1 (Homo sapiens) (UniProt O15530), entry COc1cc(O)c2c(c1)CCCC(=O)C(=O)C(O)CCC[C@H](C)OC2=O (stereo partly drawn) [L-783277]
Result block: > 10 µM

====

assay-target: Cyclin-dependent kinase 2 (Homo sapiens)
experimental-readout: IC50

Query block: Request the reported IC50 associated with COc1cc(O)c2c(c1)CCCC(=O)C(=O)C(O)CCC[C@H](C)OC2=O (stereo partly drawn) [L-783277]
Result block: > 10 µM
